test system: liver HepG-2 cancer cell line; assay: In vitro cytotoxic activity (MTT assay), HepG-2; settings: 100 µM
Mark No for percentage cytotoxicity on HepG-2 values under 70%, and Yes for everything at or above.

MOLECULE | ASSAY_SYSTEM | GROUP_LABEL
CC(=O)OC[C@H]1O[C@@H](OCc2cn(-c3ccc(S(=O)(=O)NC4CCCCC4)cc3)nn2)[C@H](OC(C)=O)[C@@H](OC(C)=O)[C@H]1OC(C)=O | liver HepG-2 cancer cell line | Yes
[N-]=[N+]=Nc1ccc(S(=O)(=O)NC2CCCCC2)cc1 [Compound 4, 4-Azido-N-cyclohexylbenzenesulfonamide] | liver HepG-2 cancer cell line | Yes

[in] Textbook exercise: given the entry `O=S(=O)(NC1CCCCC1)c1ccc(-n2cc(CO[C@@H]3O[C@H](CO)[C@H](O)[C@H](O)[C@H]3O)nn2)cc1` , state whether its percentage cytotoxicity on HepG-2 is greater than or equal to 70%.
[out] Yes

[in] Textbook exercise: given the entry `CCCCNS(=O)(=O)c1ccc(-n2cc(CO[C@@H]3OC[C@@H](O)[C@H](O)[C@H]3O)nn2)cc1` , state whether its percentage cytotoxicity on HepG-2 is greater than or equal to 70%.
[out] No

[in] Textbook exercise: given the entry `O=S(=O)(NC1CCCCC1)c1ccc(-n2cc(CO[C@@H]3OC[C@@H](O)[C@H](O)[C@H]3O)nn2)cc1` , state whether its percentage cytotoxicity on HepG-2 is greater than or equal to 70%.
[out] Yes

[in] Textbook exercise: given the entry `CC(=O)O[C@@H]1[C@@H](OC(C)=O)[C@H](OCc2cn(-c3ccc(S(=O)(=O)NC4CCCCC4)cc3)nn2)OC[C@H]1OC(C)=O` , state whether its percentage cytotoxicity on HepG-2 is greater than or equal to 70%.
[out] Yes
